assay: chemical genetic growth profiling, strain panel (AID 1159580);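 note: tested at 20 µM; growth read once vehicle control cultures reached saturation at 30 °C; 1 = growth at the plate median or of vehicle wells; lower values mean less growth of the strain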; details: S. cerevisiae deletion strains, growth OD, locus YPR141C, strain kar3, stronger effect = lower value
Screen size: about 5,500 compounds; about 2,000 (36%) were called active. Roughly 18% stayed inconclusive and do not appear here. This is one part of the list.
Measured Endpoint: normalized growth

[
  {
    "Compound": "C[C@H]1O[C@@H](O[C@H]2[C@@H](O)C[C@H](O[C@H]3[C@@H](O)C[C@H](O[C@H]4CC[C@]5(C)C6C[C@@H](O)[C@]7(C)[C@@H](C8=CC(=O)OC8)CC[C@]7(O)C6CC[C@@H]5C4)O[C@@H]3C)O[C@@H]2C)C[C@H](O)[C@@H]1O (stereo partly drawn)",
    "Numeric Result": 0.984
  },
  {
    "Compound": "C[C@]12CC[C@H](O)C[C@H]1CCC1C2CC[C@]2(C)[C@@H](C3=CC(=O)OC3)[C@@H](O)C[C@]12O (stereo partly drawn)",
    "Numeric Result": 0.997
  },
  {
    "Compound": "C[C@]12CCC3C(CC[C@]4(O)C[C@@H](O)CC[C@]34C=O)[C@@]1(O)CCC2C1=CC(=O)OC1 (stereo partly drawn)",
    "Numeric Result": 0.982
  }
]
